# experimental.target: T1, Cathepsin G (Homo sapiens, UniProt P08311 P08311:21-244)
# T1 sequence: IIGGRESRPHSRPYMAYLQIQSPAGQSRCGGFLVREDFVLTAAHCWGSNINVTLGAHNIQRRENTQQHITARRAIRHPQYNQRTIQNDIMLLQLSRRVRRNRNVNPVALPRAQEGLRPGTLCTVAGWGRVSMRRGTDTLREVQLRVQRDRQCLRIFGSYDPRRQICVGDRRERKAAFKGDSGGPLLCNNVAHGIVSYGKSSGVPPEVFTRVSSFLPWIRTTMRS
# measurement.protocol: affinity chromatography; same buffer
# study.conditions: tags: Europa Bioproducts or Calbiochem; from human neutrophils (SPR, amine-coupled to CM5 chip)
metric.name: Kd (nM)
Number in nM, nothing else.

query: Tell us which Kd value is on record for cmpCG51 (ssDNA, [NONE]) DNA: ACACGAATACCCTCTGTGCTCAGCGTAACACCCAAGCGTATACCCACATATCACACGTTG
result: 0.6
